test_readout: IC50 (nM)
Numeric only. Scale: nM

Give IC50 (Proto-oncogene tyrosine-protein kinase ROS (Homo sapiens, UniProt P08922)) of the following compound: `O=C1c2c(O)ccc(O)c2C(=O)c2c(NCCNCCO)ccc(NCCNCCO)c21` 3000
